Measured values drawn from patent US20240174696A1 for this set.

System: TAZ nuclear translocation in SW1990 cells
Experiment: TAZ Nuclear Translocation Assay
Type: cell-based
Settings: Homo sapiens, 4 hours
Description: The SW1990 cells (ATCC, CRL2172) were seeded at 5000 cells/well by adding 30 μL/well of cells in RPMI1640, 10% FBS, 2 mM glutamine culture media to a 384-well plate (Greiner 781091). The cells were incubated overnight at 37° C. […] The ratio of nuclear mean fluorescence intensity and cytoplasmic ring region mean fluorescence intensity was calculated. […] The EC50 values were calculated by fitting the % inhibition with a nonlinear four-parameter logistical equation.
quantity.kind: pEC50
# pEC50 is unitless: minus log10 of the molar concentration; print number only

Name the reported pEC50 value associated with the compound CN1CCC2(CCN(c3nc(-c4ccncc4)nc4cncc(OC5CC(C#N)C5)c34)CC2)C1 (centres unmarked) [Compound 277]
6.54

Query: pEC50; subject: NC(=O)CCN1CCC2(CCN(c3nc(-c4ccncc4)nc4cnccc34)CC2)C1 [Compound 132]
5.62

pEC50 for C#CCN1CCC2(CCN(c3nc(-c4ccncc4)nc4cnccc34)CC2)C1 [Compound 261] ?
6.24

Which pEC50 is listed for COc1cncc2nc(-c3ccncc3)nc(N3CCC4(CCN(CC(C)(C)O)C4)CC3)c12 [Compound 250] ?
7.00

Could you tell me which pEC50 is on file for c1cc(-c2nc(N3CCC4(CCNC4)CC3)c3ccncc3n2)ccn1 [Compound 101] ?
6.00

###

System: TAZ nuclear translocation in SW1990 cells
Assay: TAZ Nuclear Translocation Assay
Format: cell-based
Conditions: Homo sapiens, 4 hours
Description: The SW1990 cells (ATCC, CRL2172) were seeded at 5000 cells/well by adding 30 μL/well of cells in RPMI1640, 10% FBS, 2 mM glutamine culture media to a 384-well plate (Greiner 781091). The cells were incubated overnight at 37° C. […] The ratio of nuclear mean fluorescence intensity and cytoplasmic ring region mean fluorescence intensity was calculated. […] The EC50 values were calculated by fitting the % inhibition with a nonlinear four-parameter logistical equation.
quantity.kind: EC50 (nM)
Please give a number only; it is taken to be in nM.

What value of EC50 has been recorded for this entry: CN1CCC2(CCN(c3nc(-c4ccncc4)nc4cncc(OCC5COC5)c34)CC2)C1 [Compound 270]
860

Requested read-out: EC50. Entry: Cc1n[nH]cc1-c1nc(N2CCC3(CCN(CC4COC4)C3)CC2)c2ccncc2n1 [Compound 152]
840

Any idea what its EC50 is? The compound is CC(C)Oc1cncc2nc(-c3ccncc3)nc(N3CCC4(CCNC4)CC3)c12 [Compound 248]
110

For the compound CC1CC2(CCN(c3nc(-c4ccncc4)nc4cnccc34)CC2)CN1C (stereo not drawn) [Compound 168] , what EC50 is on record?
830

###

Target: Human LATS2 catalytic domain (Homo sapiens (Human))
Sequence (Q9NRM7 553-1088): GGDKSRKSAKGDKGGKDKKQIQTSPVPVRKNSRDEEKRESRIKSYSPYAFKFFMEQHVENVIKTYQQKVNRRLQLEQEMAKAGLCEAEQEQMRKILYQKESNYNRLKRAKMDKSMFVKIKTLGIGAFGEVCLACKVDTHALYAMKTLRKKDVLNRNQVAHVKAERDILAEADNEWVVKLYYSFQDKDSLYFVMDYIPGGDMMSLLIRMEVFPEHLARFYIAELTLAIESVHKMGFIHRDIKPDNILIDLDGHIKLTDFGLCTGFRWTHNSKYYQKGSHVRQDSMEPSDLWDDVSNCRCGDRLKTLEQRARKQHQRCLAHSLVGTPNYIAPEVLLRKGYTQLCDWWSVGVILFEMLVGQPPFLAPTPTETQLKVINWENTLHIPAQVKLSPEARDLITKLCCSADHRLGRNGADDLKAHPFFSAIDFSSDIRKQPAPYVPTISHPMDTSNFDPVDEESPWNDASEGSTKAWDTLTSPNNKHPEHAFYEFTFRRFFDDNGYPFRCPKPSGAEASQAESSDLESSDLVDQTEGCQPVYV
Sequence (Q7L9L4 whole entry partner, the tested form may be a part): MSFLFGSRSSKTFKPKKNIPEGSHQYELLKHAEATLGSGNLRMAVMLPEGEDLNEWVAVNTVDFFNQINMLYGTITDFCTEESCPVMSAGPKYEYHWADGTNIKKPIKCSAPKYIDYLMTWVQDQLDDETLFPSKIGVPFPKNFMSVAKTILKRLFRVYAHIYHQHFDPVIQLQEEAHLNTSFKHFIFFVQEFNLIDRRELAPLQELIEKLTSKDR
Assay: LATS2 High ATP HTRF Assay
Type: biochemical
Conditions: no asterisk: LATS2 High ATP HTRF Assay, 5000 μM ATP, 0.05 nM LATS2
pKi: −log10 of the molar value.
Entries are sorted into classes by pKi as follows: lower: < 9; middle: ≥ 9 and < 10; upper: ≥ 10

Lab note: which band did `COc1nccc2c(N3CCC4(CCN(C)C4)CC3)nc(-c3ccncc3)nc12` land in?
lower

Assign a category based on measured pKi for `O=C1NCCC12CCN(c1nc(-c3ccncc3)nc3cnccc13)CC2` and give only the class name.
lower

# bin lookup: classify `Cc1n[nH]cc1-c1nc(N2CCC3(CCN(CCS(=O)(=O)N(C)C)C3)CC2)c2ccncc2n1` by its pKi
middle

For the record `FCOc1cncc2nc(-c3ccncc3)nc(N3CCC4(CCNC4)CC3)c12` , report the class its pKi corresponds to.
upper

Would you mind sorting `Cc1[nH]ncc1-c1nc(N2CCC3(CCN(C)C3)CC2)c2ccnc(Cl)c2n1` into the appropriate category?
upper
